- experiment_description: 14C assay: 14CO2 capture from [14C]-carboxyl-labeled dicamba with IPTG-induced recombinant E. coli cells
- condition_details: IPTG-induced recombinant E. coli cells; 14CO2 from [14C]-carboxyl-labeled dicamba
property_label: Dicamba Decarboxylase Activity

| molecule | property_label | endpoint_value |
| --- | --- | --- |
| 13 (protein, listed as Metarhizium acridum) MAHGKVALEEAFALPRLHEKTRWWASLFAVNPDKHAAEMTDITDIRINYMDKHGVGYTILSYTAPGVQDISDPKEAQALAVEINDYVAGAIKNHPDRFGAFATLSMRNPQEAATELKRCVTQYGFKGALVNDTQRAGEDDMIFYDGPEWDVFWSTVEELDVPFYLHPRNPTGSLYEKLWAKRKWLVGPPLSFAQGVSLHVLGMVTNGVFDRHPKLQVVLGHLGEHIPFDMWRINHWFEDVKKPLGLDCKKTIREYFQQNIWITTSGHFSTTTLQFCMAEVGADRILFSIDYPFECFADACDWYDGVPINLVDKAKIGRDNARRLFKLPEFKDSEKHVDA | Dicamba Decarboxylase Activity | No |
| 56 (protein, Enterobacter aerogenes) MAKIICLEEHYLDSELGRACMPVALEQAPFLGDWGKTVADGHNPDRSRPQIEKNALINAKGADLGSRRLRDMDEAGITLQILSVGGFPQLAPEDEAVTLNTAANDRLAEAVRNHPDRFAAFATLPWAQPKDAENELVRAVEKLGFKGALLNGRPSSCFLDHPDYDSLLSRFNKLNVPLYLHPGLPLKSVQQAYFTGFSAEVNARLSMFGWGWHHEAGIHLLRLMLSGAFDKYPNMQVISGHWGEMLPFWLQRLDDSLPLAATGLSRTLTRTFQEHVYVTPSGMLTLPHFKFIYELMGAERILFSVDYPYQTLDGVKTFIDSLPVNKAEKEAIAFRNAERLLGITA | Dicamba Decarboxylase Activity | High |
